Tested on: HL-ICOs
Test: Cytotoxicity (CellTiter-Glo ATP viability) in hepatocyte-like intrahepatic cholangiocyte organoids, 48 h exposure
Format: cell-based, human
Conditions: Homo sapiens, 48 h, HL-ICOs, the other three ICO donors, higher than highest tested concentration
pEC50: −log10 of the molar value.
quantity kind: pEC50

| smiles entry | val |
| --- | --- |
| O=C(O)Cc1ccccc1Nc1c(Cl)cccc1Cl | < 3.30 |

====

Examples of compounds with documented pEC50 follow.
Test system: PHH
Assay: Cytotoxicity (CellTiter-Glo ATP viability) in primary human hepatocytes, 48 h exposure
Assay type: cell-based
Details: Hepatocyte, PHH (pool of 10 donors, collagen I sandwich), 48 h single dose, cell viability (ATP)
pEC50: −log10 of the molar value.
quantity kind: pEC50

| compound | val |
| --- | --- |
| Cc1c(C)c2c(c(C)c1O)CCC(C)(COc1ccc(CC3SC(=O)NC3=O)cc1)O2 (centres unmarked) [Troglitazone] | 4.24 |
| C1CCC(C(CC2CCCCN2)C2CCCCC2)CC1 (centres unmarked) [Perhexiline] | 5.09 |
| CCCC(CCC)C(=O)O [Valproic Acid] | 2.01 |
| CC(=O)Nc1ccc(O)cc1 [Acetaminophen] | 2.38 |
| O=C(O)Cc1ccccc1Nc1c(Cl)cccc1Cl [Diclofenac] | 3.38 |

====

Examples of molecules with documented EC50 follow.
Tested on: HL-ICOs
Experiment: Cytotoxicity (CellTiter-Glo ATP viability) in hepatocyte-like intrahepatic cholangiocyte organoids, 48 h exposure
Format: cell-based, human
Settings: Homo sapiens, HL-ICOs differentiation day 12, ICO donor in second HL-ICO column, 48 h single dose, cell viability (ATP)

| molecule | bound operator | EC50 [µM] |
| --- | --- | --- |
| Cc1c(C)c2c(c(C)c1O)CCC(C)(COc1ccc(CC3SC(=O)NC3=O)cc1)O2 (centres unmarked) | = | 90.8 |
| O=C(O)Cc1ccccc1Nc1c(Cl)cccc1Cl | > | 500 |
| C1CCC(C(CC2CCCCN2)C2CCCCC2)CC1 (centres unmarked) | = | 9.68 |
| CC(=O)Nc1ccc(O)cc1 | = | 24600 |
| CCCC(CCC)C(=O)O | > | 10000 |

====

System: PHH
Assay: Cytotoxicity (CellTiter-Glo ATP viability) in primary human hepatocytes, 48 h exposure
Assay type: cell-based
Conditions: Hepatocyte, PHH
Procedure: LiverPool cryoplateable hepatocytes (pool of 10 donors, mixed gender; BioIVT, Hicksville, NY, USA) were cultured in a collagen I (Sigma-Aldrich, St Louis, MO, USA) sandwich in INVITROGRO CP medium (BioIVT) complemented with the TORPEDO Antibiotic mix (BioIVT). […] The viability of exposed cells was determined by cellular ATP levels using the CellTiter-Glo Luminescent Cell Viability Assay (Promega, Madison, WI, USA). […]
pEC50: −log10 of the molar value.
Examples of compounds with documented pEC50 follow.
quantity kind: pEC50

| compound | val |
| --- | --- |
| CC(=O)Nc1ccc(O)cc1 [Acetaminophen] | 2.38 |
| CCCC(CCC)C(=O)O [Valproic Acid] | 2.01 |
